B1: TPR t1 (parent)
chain: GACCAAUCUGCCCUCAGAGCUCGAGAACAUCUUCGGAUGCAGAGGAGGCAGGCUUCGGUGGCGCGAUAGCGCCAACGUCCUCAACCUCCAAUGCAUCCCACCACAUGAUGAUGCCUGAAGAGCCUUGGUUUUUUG

variants of: B1; assay: polymerase ribozyme fitness, log enrichment relative to wild type (log ratio); higher = more active; in vitro selection for triplet polymerase activity

{"sequenceVariant": "A43C U112G U126G G128U", "polymerase ribozyme fitness (log ratio)": -3.02}
{"sequenceVariant": "A41G C56A", "polymerase ribozyme fitness (log ratio)": -1.81}
{"sequenceVariant": "G44A G113A U130C", "polymerase ribozyme fitness (log ratio)": -2.43}
{"sequenceVariant": "C62G A75C A118U C123A G135U", "polymerase ribozyme fitness (log ratio)": -2.3}
{"sequenceVariant": "C53G G61A C88A A111U U112G C124A", "polymerase ribozyme fitness (log ratio)": -1}
{"sequenceVariant": "C13U A37G G47A G57C G71C", "polymerase ribozyme fitness (log ratio)": -1.61}
{"sequenceVariant": "G10U G44C G61C", "polymerase ribozyme fitness (log ratio)": -3.37}
{"sequenceVariant": "C4G C13U C53U A68G C115G A121U", "polymerase ribozyme fitness (log ratio)": -1.92}
{"sequenceVariant": "G60A A100U", "polymerase ribozyme fitness (log ratio)": -0.621}
{"sequenceVariant": "A46U G61A", "polymerase ribozyme fitness (log ratio)": 0.101}
{"sequenceVariant": "G63U U92G G122A", "polymerase ribozyme fitness (log ratio)": -5.14}
{"sequenceVariant": "G47C G113U", "polymerase ribozyme fitness (log ratio)": -4.11}
{"sequenceVariant": "C56G C62U A103U U109G", "polymerase ribozyme fitness (log ratio)": -6.92}
{"sequenceVariant": "G44A U59A G60U C89U A91G C104A C114U", "polymerase ribozyme fitness (log ratio)": -6.21}
